# protocol_notes: gradient 5% acetonitrile 3 min, to 50% in 2 min, to 85% in 15 min, held 3 min, 100 µL/min
# applied_conditions: column: Zorbax Extend-C18 2.1 x 50 mm; eluents: water / acetonitrile, 0.1% formic acid
So basically: is RP-LC retention time under 700 s? Then 1.0. Not under? Then 0.0.

# TODO verify RP-LC retention time < 700 s strictly for this compound: Cc1ccc2oc(=O)n(Cc3noc(C(=O)NCC(C)c4ccccc4)n3)c2c1 (stereo not given)
0.0

# TODO verify RP-LC retention time < 700 s strictly for this compound: Cc1ccc(C)c(S(=O)(=O)N2CCc3c(c(-c4nnc(-c5ccccc5)o4)nn3C)C2)c1
0.0

# TODO verify RP-LC retention time < 700 s strictly for this compound: Fc1ccc(Cc2nc3nccc(-c4ccsc4)n3n2)cc1
0.0

# TODO verify RP-LC retention time < 700 s strictly for this compound: CNC(Cc1ccccc1)c1ccc(OC)cc1 (stereo not given)
1.0

# TODO verify RP-LC retention time < 700 s strictly for this compound: O=C(Cc1nnc2cc(-c3nc(C4CC4)no3)ccn12)NC1CCCCC1
0.0

# TODO verify RP-LC retention time < 700 s strictly for this compound: Cc1nc2cc(N3CCCC(C(=O)O)C3)cnc2nc1C (stereo not given)
1.0

# TODO verify RP-LC retention time < 700 s strictly for this compound: CN1CCN(c2nc3ccccc3nc2Cl)CC1
1.0

# TODO verify RP-LC retention time < 700 s strictly for this compound: COC(=O)c1ccc(NC(=O)C2CCCN(c3nc4ccccc4nc3OC)C2)cc1 (stereo not given)
0.0

====

Recorded RP-LC retention time values for a group of compounds are listed next.
# protocol_notes: gradient 5% acetonitrile 3 min, to 50% in 2 min, to 85% in 15 min, held 3 min, 100 µL/min
# applied_conditions: column: Zorbax Extend-C18 2.1 x 50 mm; eluents: water / acetonitrile, 0.1% formic acid
State the result as a value with its unit after it.

Worked cases, RP-LC retention time given:
[[record]]
compound = "Fc1ccc(-c2nc(-c3cn(-c4ccccc4)nn3)no2)cc1"
metric = "RP-LC retention time"
result = "607 s"

[[record]]
compound = "COC(=O)c1cccc(Nc2c(-c3ccc(F)cc3)nc3cnccn23)c1"
metric = "RP-LC retention time"
result = "830 s"

[[record]]
compound = "COC(=O)c1cc2c(=O)n(-c3cc(OC)c(OC)c(OC)c3)ccc2nc1C"
metric = "RP-LC retention time"
result = "751 s"

[[record]]
compound = "O=C(Nc1ccc(Cl)cc1)C1CCCN1S(=O)(=O)c1cccc2nsnc12 (stereo not drawn)"
metric = "RP-LC retention time"
result = "924 s"

[[record]]
compound = "Cc1cc(Cl)ccc1NC(=O)C1CCN(S(=O)(=O)c2cc(C(=O)N3CCCC3)cs2)CC1"
metric = "RP-LC retention time"
result = "892 s"


RP-LC retention time measured on CC(C)C(NC(=O)c1cccc(CN2C(=O)C3CCCN3C(=O)c3ccccc32)c1)c1cccs1 (stereo not drawn) = 882 s

RP-LC retention time measured on CSc1ccc(CNC(=O)COc2cc(C)nc(N3CCN(c4ccccc4)CC3)n2)cc1 = 857 s

RP-LC retention time measured on CC(C)n1cc(C2=CCN(S(=O)(=O)c3cccc4cccnc34)CC2)c2cccnc21 = 993 s

RP-LC retention time measured on COc1ccc(N2CCN(C(=O)c3ccc(S(=O)(=O)N4CCCC4)cc3)CC2)nn1 = 579 s

RP-LC retention time measured on Cc1cccc(NC(=O)c2cn3c(n2)CCCC3)c1C = 603 s

RP-LC retention time measured on Cc1nc(-c2cc(S(=O)(=O)N3CCC(C(=O)NC4CCCCCCC4)CC3)c(C)s2)no1 = 1070 s

RP-LC retention time measured on CCOC(=O)C1=CN(Cc2ccccc2)C=C(C(=O)OCC)C1c1ccccc1 = 1130 s

RP-LC retention time measured on Cc1ccc(-c2cc3n(n2)CCCN(C(=O)Cc2ccsc2)C3)cc1 = 857 s

RP-LC retention time measured on O=S(=O)(c1ccc(-c2noc(-c3ccccc3F)n2)cc1)N1CCCC1 = 1100 s

RP-LC retention time measured on COC(=O)c1cccc(NC(=O)c2[nH]c3cc(C)sc3c2CN2CCOCC2)c1 = 673 s

RP-LC retention time measured on Cc1cccc(NC(=O)N2CCC(n3cnc4cc(Cl)ccc4c3=O)CC2)c1 = 877 s

RP-LC retention time measured on CC(C)=C1SC(N2CCN(c3cccc(C(F)(F)F)c3)CC2)=NC1=O = 922 s

RP-LC retention time measured on CCOc1ccc(C(=O)NC2(c3nc(CC)no3)CCCCC2)cc1OCC = 990 s

====

# protocol_notes: gradient 5% acetonitrile 3 min, to 50% in 2 min, to 85% in 15 min, held 3 min, 100 µL/min
# applied_conditions: column: Zorbax Extend-C18 2.1 x 50 mm; eluents: water / acetonitrile, 0.1% formic acid
metric: RP-LC retention time (s)
State the answer as a number, implicitly in s.

RP-LC retention time measured on Cc1ccc(NC(=O)Cn2ncc3c(c2=O)N(CC2CC2)C(=O)CS3)c(Cl)c1 = 846

RP-LC retention time measured on COc1ccc(NC(=O)Cn2c(=O)c3cc(-c4ccco4)nn3c3ncccc32)cc1Cl = 822

RP-LC retention time measured on CCOc1ccccc1-n1nnc(C(=O)OCc2nc(-c3ccccc3)oc2C)c1C = 1090

RP-LC retention time measured on CN1CCN(CCNC(=O)c2ccc(NC(=O)C3=CSCCO3)cc2)CC1 = 754

RP-LC retention time measured on O=C(CCc1c(-c2ccc(F)cc2)nc2ccccn12)N1CCN(c2ccccc2F)CC1 = 694

RP-LC retention time measured on Cc1nc(-c2ccc3c(c2)CCN3C(=O)C2COc3ccccc3O2)cs1 (stereo not given) = 1020

RP-LC retention time measured on N#Cc1c(NC(=O)c2cccnc2)sc2c1CCCCC2 = 834

RP-LC retention time measured on O=C(c1csc(N2CCN(c3ccc(F)cc3)CC2)n1)N1CCCC1 = 963

RP-LC retention time measured on Cc1nn(C2CCS(=O)(=O)C2)c(C)c1N1CCN(C(=O)C(C)Oc2ccccc2)CC1 (stereo not given) = 731

====

# protocol_notes: gradient 5% acetonitrile 3 min, to 50% in 2 min, to 85% in 15 min, held 3 min, 100 µL/min
# applied_conditions: column: Zorbax Extend-C18 2.1 x 50 mm; eluents: water / acetonitrile, 0.1% formic acid
Recorded RP-LC retention time values for a group of molecules are listed next.
State the answer as a number, implicitly in s.

Worked cases, RP-LC retention time given:
[[record]]
molecule = "CCOC(=O)c1c(C)[nH]c(C(=O)N2CCCC(C(=O)NCCCN3CCCCCC3)C2)c1C (stereo not given)"
unit_abbreviation = "s"
numeric_result = 624

[[record]]
molecule = "COc1ccccc1CCC(=O)NC(C(=O)Nc1nc2ccccc2[nH]1)C(C)C (stereo not given)"
unit_abbreviation = "s"
numeric_result = 721

[[record]]
molecule = "COc1cc(-c2nc3ncccn3c2NC2CCCC2)cc(OC)c1OC"
unit_abbreviation = "s"
numeric_result = 705

[[record]]
molecule = "O=C(Nc1ccc(F)cc1)C1CCCN(c2cnc3nccnc3c2)C1 (stereo not given)"
unit_abbreviation = "s"
numeric_result = 736


RP-LC retention time measured on Cc1ccc(NS(=O)(=O)c2ccc(-c3c(C)noc3C)cc2)c(Br)c1 = 1020

====

# protocol_notes: gradient 5% acetonitrile 3 min, to 50% in 2 min, to 85% in 15 min, held 3 min, 100 µL/min
# applied_conditions: column: Zorbax Extend-C18 2.1 x 50 mm; eluents: water / acetonitrile, 0.1% formic acid
Recorded RP-LC retention time values for a group of compounds are listed next.
State the answer as a number, implicitly in s.

Worked cases, RP-LC retention time given:
[[record]]
compound = "C=CCN1C[C@@H](C)N([C@H](c2ccc(C(=O)N(CC)CC)cc2)c2cccc(OC)c2)C[C@@H]1C"
numeric_result = 770

[[record]]
compound = "COc1ccccc1CN1CC(=O)N(c2cccc(C)c2)[C@@H]2CS(=O)(=O)C[C@@H]21"
numeric_result = 819

[[record]]
compound = "CCc1ccc2nc(C)cc(C(=O)NC(C)C)c2c1"
numeric_result = 621


RP-LC retention time measured on CC1CCN(C(=O)C2CCN(S(C)(=O)=O)c3cc(Cl)ccc3O2)CC1 (stereo not given) = 922

RP-LC retention time measured on COc1ccc(-c2noc(-c3nc(C(C)C)no3)n2)cc1 = 1120

RP-LC retention time measured on Cc1ccnc(Nc2nc(CC(=O)NCCc3cccs3)cs2)c1 = 581

RP-LC retention time measured on CCSc1nc2ccc(NS(=O)(=O)c3ccc(C)c(C)c3)cc2s1 = 1080

RP-LC retention time measured on COc1ccc(-c2c(C(=O)NCc3cccnc3)nn3c(C)cc(C)nc23)cc1S(=O)(=O)N1CCCC1 = 638

RP-LC retention time measured on O=C(Nc1ccc(F)cc1)Nc1cccn2ncnc12 = 763

RP-LC retention time measured on O=C(Nc1cccc(Cl)c1)N1CCN(c2ncc(C(F)(F)F)cc2Cl)CC1 = 1190

RP-LC retention time measured on CSc1ccccc1C(=O)N(CCc1ccccc1)Cc1ccccn1 = 762

RP-LC retention time measured on Cc1oc(-c2ccc(Cl)cc2)nc1CN1CCC(C(=O)NCCCN(C)Cc2ccccc2)CC1 = 615

RP-LC retention time measured on CN1CCn2cc(S(=O)(=O)Nc3ccc(F)cc3Cl)cc2C1=O = 690

RP-LC retention time measured on Cc1cc(C)c(S(=O)(=O)N2CC(c3nc(-c4ccncc4)no3)C2)cc1C = 974

RP-LC retention time measured on CS(=O)(=O)N(C1CCOCC1)C1CCN(S(=O)(=O)Cc2ccccc2)CC1 = 779

RP-LC retention time measured on Cn1c(=O)n(CCN2CCOCC2)c(=O)c2c1nc1n2CCCN1c1ccc(Cl)cc1 = 643

RP-LC retention time measured on CCc1nccn1Cc1nc(-c2ccc(Br)cc2)no1 = 677

RP-LC retention time measured on CCc1cc(C(c2cccc(F)c2)N2CCN(C)CC2)c(NC(=O)c2ccccc2)s1 (stereo not given) = 622

RP-LC retention time measured on O=C(NCCc1ccccc1)c1ccc2c(c1)CCN2C(=O)C1CC1 = 814

RP-LC retention time measured on COc1ccc(NC(=O)NCC23CCCC=C2N(C)C(=O)CC3)cc1 (stereo not given) = 740
